Biological target: KRasG12D (Homo sapiens, UniProt P01116, G12D)
Sequence (P01116 1-188 isoform P01116-2 G12D): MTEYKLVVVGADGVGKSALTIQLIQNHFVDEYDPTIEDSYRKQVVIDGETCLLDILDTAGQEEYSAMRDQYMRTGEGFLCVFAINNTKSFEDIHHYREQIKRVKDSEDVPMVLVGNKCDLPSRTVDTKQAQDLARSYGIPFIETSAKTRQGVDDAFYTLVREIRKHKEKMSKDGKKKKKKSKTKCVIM
Assay: KRAS inhibitory activity test, TR-FRET (inhibition of binding of KRasG12D to GTP, SOS/GTP nucleotide exchange)
Conditions: read-out: IC50 values of the compounds for inhibiting KRAS enzymes, G12D
Method: • 1. […] Reagent Preparation: • a. Storage Reagents: Prepare a 1L solution by mixing 20mL of 1000mM HEPES, 20mL of 500mM EDTA, 10mL of 5M sodium chloride, 0.1mL of 100% Tween 20, and 949.9mL of water. Sterilize by filtration and store at 4°C. Prepare a 1L solution by mixing 20mL of 1000mM HEPES, 10mL of 1000mM magnesium chloride, 30mL of 5M sodium chloride, 0.05mL of 100% Tween 20, and 939.95mL of water. Sterilize by filtration and store at 4°C. […]
pIC50: −log10 of the molar value.

>  <Molecule>
Cc1cc(N)nc([C@@H]2Cc3nc(OC[C@@]45CCCN4C[C@H](F)C5)nc(N4C[C@H]5CC[C@@H](C4)N5)c3CS2(=O)=O)c1C(F)(F)F

>  <Target System>
KRasG12D (Homo sapiens, UniProt P01116, G12D)

>  <pIC50>
7.00 to 8.00

$$$$
>  <Molecule>
C=C1CN2CCC[C@@]2(COc2nc3c(c(N4CC5CCC(C4)N5)n2)CS(=O)(=O)[C@H](c2nc(N)cc(C)c2C(F)(F)F)C3)C1 [Compound 20A]

>  <Target System>
KRasG12D (Homo sapiens, UniProt P01116, G12D)

>  <pIC50>
≥ 8.00

$$$$
>  <Molecule>
Cc1cc(O)c(F)c([C@H]2Cc3nc(OC[C@@]45CCCN4C[C@H](F)C5)nc(N4CCC[C@@](C)(O)C4)c3CS2(=O)=O)c1C(F)(F)F

>  <Target System>
KRasG12D (Homo sapiens, UniProt P01116, G12D)

>  <pIC50>
7.00 to 8.00

$$$$
>  <Molecule>
Cc1cc(N)nc([C@@H]2Cc3nc(OC[C@@]45CCCN4CC(=CF)C5)nc(N4CC5CCC(C4)N5)c3CS2(=O)=O)c1C(F)(F)F [Compound 19A]

>  <Target System>
KRasG12D (Homo sapiens, UniProt P01116, G12D)

>  <pIC50>
≥ 8.00

$$$$
>  <Molecule>
Cc1cc(N)c(F)c(C2Cc3nc(OC[C@@]45CCCN4CC(=CF)C5)nc(N4CC5CCC(C4)N5)c3CS2(=O)=O)c1C(F)(F)F (some centres unmarked)

>  <Target System>
KRasG12D (Homo sapiens, UniProt P01116, G12D)

>  <pIC50>
≥ 8.00

$$$$
>  <Molecule>
C=C1CN2CCC[C@@]2(COc2nc3c(c(N4CC5CCC(C4)N5)n2)CS(=O)(=O)C(c2c(F)c(N)cc(C)c2C(F)(F)F)C3)C1 (some centres unmarked)

>  <Target System>
KRasG12D (Homo sapiens, UniProt P01116, G12D)

>  <pIC50>
≥ 8.00

$$$$
>  <Molecule>
Cc1cc(N)nc([C@@H]2Cc3nc(OC[C@@]45CCCN4C[C@H](F)C5)nc(N4CCC[C@@](C)(O)C4)c3CS2(=O)=O)c1C(F)(F)F

>  <Target System>
KRasG12D (Homo sapiens, UniProt P01116, G12D)

>  <pIC50>
≥ 8.00

$$$$
>  <Molecule>
CC#Cc1cc(N)cc(C2Cc3nc(OC[C@@]45CCCN4CC(=C(F)F)C5)nc(N4CC5CCC(C4)N5)c3CS2(=O)=O)c1C(F)(F)F (some centres unmarked)

>  <Target System>
KRasG12D (Homo sapiens, UniProt P01116, G12D)

>  <pIC50>
≥ 8.00

$$$$
>  <Molecule>
CC#Cc1cc(N)c(F)c(C2Cc3nc(OC[C@@]45CCCN4C[C@H](F)C5)nc(N4CC5CCC(C4)N5)c3CS2(=O)=O)c1C(F)(F)F (some centres unmarked)

>  <Target System>
KRasG12D (Homo sapiens, UniProt P01116, G12D)

>  <pIC50>
≥ 8.00

$$$$
>  <Molecule>
Cc1cc(N)nc([C@@H]2Cc3nc(OC[C@@]45CCCN4CC(=C(F)F)C5)nc(N4CC5CCC(C4)N5)c3CS2(=O)=O)c1C(F)(F)F [Compound 18A]

>  <Target System>
KRasG12D (Homo sapiens, UniProt P01116, G12D)

>  <pIC50>
≥ 8.00

$$$$
>  <Molecule>
Cc1cc(N)c(F)c([C@H]2Cc3nc(OC[C@@]45CCCN4C[C@H](F)C5)nc(N4C[C@H]5CC[C@@H](C4)N5)c3CS2(=O)=O)c1C(F)(F)F

>  <Target System>
KRasG12D (Homo sapiens, UniProt P01116, G12D)

>  <pIC50>
7.00 to 8.00

$$$$
>  <Molecule>
Cc1cc(N)c(F)c([C@@H]2Cc3nc(OC[C@@]45CCCN4CC(=C(F)F)C5)nc(N4CC5CCC(C4)N5)c3CS2(=O)=O)c1C(F)(F)F [Compound 9A]

>  <Target System>
KRasG12D (Homo sapiens, UniProt P01116, G12D)

>  <pIC50>
≥ 8.00

$$$$
>  <Molecule>
Cc1cc(O)c(F)c([C@@H]2Cc3nc(OC[C@@]45CCCN4C[C@H](F)C5)nc(N4C[C@H]5CC[C@@H](C4)N5)c3CS2(=O)=O)c1C(F)(F)F

>  <Target System>
KRasG12D (Homo sapiens, UniProt P01116, G12D)

>  <pIC50>
7.00 to 8.00

$$$$
>  <Molecule>
CC#Cc1cc(N)cc([C@@H]2Cc3nc(OC[C@@]45CCCN4CC(=C(F)F)C5)nc(N4CC5CCC(C4)N5)c3CS2(=O)=O)c1C(F)(F)F [Compound 31A]

>  <Target System>
KRasG12D (Homo sapiens, UniProt P01116, G12D)

>  <pIC50>
≥ 8.00

$$$$
>  <Molecule>
Cc1cc(N)c(F)c([C@@H]2Cc3nc(OC[C@@]45CCCN4C[C@H](F)C5)nc(N4C[C@H]5CC[C@@H](C4)N5)c3CS2(=O)=O)c1C(F)(F)F [Compound 36A]

>  <Target System>
KRasG12D (Homo sapiens, UniProt P01116, G12D)

>  <pIC50>
≥ 8.00

$$$$
>  <Molecule>
Cc1cc(N)c(F)c([C@@H]2Cc3nc(OC[C@@]45CCCN4C[C@H](F)C5)nc(N4C[C@H]5CC[C@@H](C4)N5)c3CS2(=O)=O)c1C(F)(F)F [Compound 30A]

>  <Target System>
KRasG12D (Homo sapiens, UniProt P01116, G12D)

>  <pIC50>
≥ 8.00

$$$$
>  <Molecule>
C=C1CN2CCC[C@@]2(COc2nc3c(c(N4CC5CCC(C4)N5)n2)CS(=O)(=O)C(c2nc(N)cc(C)c2C(F)(F)F)C3)C1 (some centres unmarked)

>  <Target System>
KRasG12D (Homo sapiens, UniProt P01116, G12D)

>  <pIC50>
≥ 8.00

$$$$
>  <Molecule>
Cc1cc(N)c(F)c([C@@H]2Cc3nc(OC[C@@]45CCCN4C[C@H](F)C5)nc(N4C[C@H]5CC[C@@H](C4)N5)c3CS2(=O)=O)c1C(F)(F)F [Compound 29A]

>  <Target System>
KRasG12D (Homo sapiens, UniProt P01116, G12D)

>  <pIC50>
≥ 8.00

$$$$
>  <Molecule>
Cc1cc(O)nc([C@H]2Cc3nc(OC[C@@]45CCCN4C[C@H](F)C5)nc(N4C[C@H]5CC[C@@H](C4)N5)c3CS2(=O)=O)c1C(F)(F)F

>  <Target System>
KRasG12D (Homo sapiens, UniProt P01116, G12D)

>  <pIC50>
7.00 to 8.00

$$$$
>  <Molecule>
Cc1cc(N)c(F)c([C@@H]2Cc3nc(OC[C@@]45CCCN4CC(=C(F)F)C5)nc(N4CC5CCC(C4)N5)c3CS2(=O)=O)c1C(F)(F)F [Compound 10A]

>  <Target System>
KRasG12D (Homo sapiens, UniProt P01116, G12D)

>  <pIC50>
≥ 8.00

$$$$
>  <Molecule>
Cc1cc(N)c(F)c([C@@H]2Cc3nc(OC[C@@]45CCCN4C[C@H](F)C5)nc(N4C[C@H]5CC[C@@H](C4)N5)c3CS2(=O)=O)c1C(F)(F)F [Compound 38A]

>  <Target System>
KRasG12D (Homo sapiens, UniProt P01116, G12D)

>  <pIC50>
≥ 8.00

$$$$
>  <Molecule>
Cc1cc(N)cc(C2Cc3nc(OC[C@@]45CCCN4C/C(=C\F)C5)nc(N4CC5CCC(C4)N5)c3CS2(=O)=O)c1C(F)(F)F (some centres unmarked)

>  <Target System>
KRasG12D (Homo sapiens, UniProt P01116, G12D)

>  <pIC50>
≥ 8.00

$$$$
>  <Molecule>
Cc1cc(N)nc([C@H]2Cc3nc(OC[C@@]45CCCN4C[C@H](F)C5)nc(N4C[C@H]5CC[C@@H](C4)N5)c3CS2(=O)=O)c1C(F)(F)F

>  <Target System>
KRasG12D (Homo sapiens, UniProt P01116, G12D)

>  <pIC50>
≥ 8.00

$$$$
